Source listed as ChEMBL document CHEMBL2331358.

assay: Inhibition of West Nile virus NS2B-NS3 serine protease using Pyr-RTKR-AMC as substrate incubated for 1 hr prior to substrate addition measured every 45 secs for 1 hr by fluorescence assay
# IC50 per entry
Give just the number in µM; leave the unit off.

Some solved entries appear below for comparison.
given_smiles=CCCC[C@H](NCC(=O)c1ccc(-c2ccccc2)cc1)C(=O)N[C@@H](CCCCN)C(=O)NCCCCNC(=N)N data_value=47.9
given_smiles=N=C(N)NCCCCNC(=O)[C@H](CCCCN)NC(=O)[C@H](CCCCN)NCC(=O)c1ccc(-c2ccccc2)cc1 data_value=4.7
given_smiles=N=C(N)NCCCCNC(=O)[C@H](CCCCN)NC(=O)[C@@H](N)CCCCN data_value=38.2
given_smiles=CCCC(=O)N[C@@H](CCCCN)C(=O)N[C@@H](CCCCN)C(=O)NCCCCNC(=N)N data_value=18.5
given_smiles=Cc1cccc(CC(=O)N[C@@H](CCCCN)C(=O)N[C@@H](CCCCN)C(=O)NCCCCNC(=N)N)c1 data_value=9.2

Could you now consider this next compound?
Quick one: IC50 of N=C(N)NCCCCNC(=O)[C@H](CCCCN)NC(=O)[C@H](CCCCN)NC(=O)Cc1ccc(Cl)cc1 ?
4.8

* * *

experiment: Inhibition of West Nile virus NS2B-NS3 serine protease using Pyr-RTKR-AMC as substrate incubated for 1 hr prior to substrate addition measured every 45 secs for 1 hr by fluorescence assay
Reported Endpoint: IC50 (µM)
Give just the number in µM; leave the unit off.

Quick one: IC50 of N=C(N)NCCCCNC(=O)[C@H](CCCCN)NC(=O)[C@H](CCCCN)NC(=O)Cc1cccc(-c2ccccc2)c1 ?
9.9

Quick one: IC50 of Cc1ccccc1CC(=O)N[C@@H](CCCCN)C(=O)N[C@@H](CCCCN)C(=O)NCCCCNC(=N)N ?
6.8

Quick one: IC50 of N=C(N)NCCCCNC(=O)[C@H](CCCCN)NC(=O)[C@H](CCCCN)NC(=O)Cc1ccccc1 ?
8.5

* * *

assay: Inhibition of West Nile virus NS2B-NS3 serine protease using Pyr-RTKR-AMC as substrate incubated for 1 hr prior to substrate addition measured every 45 secs for 1 hr by fluorescence assay
Mark yes only when IC50 stays strictly below 20 µM. Values equal to the cut-off are no.

A selection of reference data follows.
given_smiles=CC(=O)N[C@@H](CCCCN)C(=O)N[C@@H](CCCCN)C(=O)NCCCCNC(=N)N discrete_label=yes
given_smiles=CC(C)(C)C(=O)N[C@@H](CCCCN)C(=O)N[C@@H](CCCCN)C(=O)NCCCCNC(=N)N discrete_label=no
given_smiles=N=C(N)NCCCCNC(=O)[C@H](CCCCN)NC(=O)[C@@H]1CCCN1CC(=O)c1ccc(-c2ccccc2)cc1 discrete_label=no
given_smiles=N=C(N)NCCCCNC(=O)[C@H](CCCCN)NC(=O)[C@H](Cc1ccccc1)NCC(=O)c1ccc(-c2ccccc2)cc1 discrete_label=no
given_smiles=N=C(N)NCCCCNC(=O)[C@H](CCCCN)NC(=O)[C@H](CCCCN)NC(=O)CCCc1ccccc1 discrete_label=yes

Could you please tell me whether IC50 recorded for N=C(N)NCCCCNC(=O)[C@H](CCCCN)NC(=O)[C@H](CCCCN)NC(=O)CCc1ccccc1 is less than 20 µM?
no

Could you please tell me whether IC50 recorded for N=C(N)NCCCCNC(=O)[C@H](CCCCN)NC(=O)[C@H](CCCCN)NC(=O)c1ccc2ccccc2c1 is less than 20 µM?
no
